# maps each entry to its pKd
Target: T1, human IL-23 (human, UniProt Q9NPF7 20-189; P29460 23-328)
T1 construct: Bought recombinant heterodimeric cytokine (eBioscience 34-8239-85 for panning; R&D Systems for the splenocyte assay); also called hIL-23; hIL23
T1 sequence (looked up) 1: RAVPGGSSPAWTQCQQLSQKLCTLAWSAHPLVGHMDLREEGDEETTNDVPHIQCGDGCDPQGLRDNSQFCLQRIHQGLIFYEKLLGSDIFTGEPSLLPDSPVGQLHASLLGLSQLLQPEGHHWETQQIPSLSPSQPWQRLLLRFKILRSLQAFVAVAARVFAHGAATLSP
T1 sequence (looked up) 2: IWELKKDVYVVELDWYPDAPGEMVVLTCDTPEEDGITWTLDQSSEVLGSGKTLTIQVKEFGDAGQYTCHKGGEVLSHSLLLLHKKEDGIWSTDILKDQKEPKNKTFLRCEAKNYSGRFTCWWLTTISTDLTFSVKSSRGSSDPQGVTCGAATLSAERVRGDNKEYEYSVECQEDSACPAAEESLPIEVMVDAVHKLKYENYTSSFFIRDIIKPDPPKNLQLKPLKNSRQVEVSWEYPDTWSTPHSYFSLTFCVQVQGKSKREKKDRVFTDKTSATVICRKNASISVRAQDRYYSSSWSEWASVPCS
Assay: phage-coated ELISA, clone displayed on phage
pKd: −log10 of the molar value.

BINDER | pKd
MA23 (designed binder) MSIQQIQKEIANIQEVIAAIQKWIYLMTGGSGGSGGMSIEEIQKQIAAIQCQIAAIQKQIYAMTGSGGGGSGMSIEEIQKQIAAIQEQIVAIYKQIMAMPS | 9.15
MB38 (designed binder) MSIQEIQKEIKQIQEVIAGIQKYIYGMTGGSGGSGGMSIEEIQKQIAAIQCQIAAIQKQIYAMTGSGGGGSGMSIEEIQKQIAAIQNQILAIYKQIMAMPQ | 9.74
MB67 (designed binder) MSIQKIQKEITNIQEVIAAIQKYIYTMTGGSGGSGGMSIEEIQKQIAAIQCQIAAIQKQIYAMTGSGGGGSGGSGGGGSGMSIEEIQKQIAAIQRQILAIYKQIMAMST | 9.68
MA9 (designed binder) MSIQQIQKEITTIQAVIAAIQKWIYTMTGGSGGSGGGGSGGSGGMSIEEIQKQIAAIQCQIAAIQKQIYAMTGSGGGGSGMSIEEIQKQIAAIQGQIIAIYKQIMAMKD | 9.70
